Tested on: RXF 393 renal
assay.method.text: NCI-60 one-dose screen, 48 h
protocol.conditions: 10 µM unless noted
Procedure: Cells are grown in 96 well plates and exposed to the test compound for 48 hours. Compounds are tested at a single concentration, which is 10^-5 M for most compounds. The reported endpoint is percent growth (GI% or GIPRCNT), where numbers from 0 - 100% represent growth inhibition, and numbers from -100% - 0 represent cell death. For example, a value of 40 represents 60% growth inhibition. A value of 0 means no net growth occurred over the course of the experiment. […]
Compounds without any hit were thinned out: in the full panel of roughly 83,000, 20% have a hit. Activity calls are given as the source filed them. How the source made its calls: active means growth percent below 10; inactive means the rest.
Log the outcome using a class from active, inactive

Request: Query: recorded result category for N#Cc1nc(-c2ccccc2)oc1N1CCC(CO)C1 (stereo not drawn) in this test
Result: inactive

Request: # lookup: test call for `CN(C)c1ccc(/C=C2\Cc3c(F)ccc(Br)c3C2=O)cc1`
Result: inactive

Request: Tell me the recorded outcome of this test for O=C1C2=C(C(=O)c3c(O)cccc31)C(c1ccco1)c1sc(=O)[nH]c1S2 (stereo not drawn) .
Result: inactive

Request: # lookup: test call for `Cn1c(SCC(=O)c2cccs2)nc2ccccc2c1=O`
Result: inactive

Request: # fetch the recorded call for `Nc1cc(-c2c[nH]c3ccc(Cl)cc23)nc2cc(-c3c[nH]c4ccc(Cl)cc34)nn12` here
Result: inactive

Request: Hey, what did the test say about `CC(C)(O)c1cncc(-c2ccc3ncnc(N4CCc5cc(F)c(Cl)cc54)c3c2)c1` ?
Result: active

Request: # lookup: test call for `COc1ccc(NC2=CC(=O)C(C)=C(C)C2=O)cc1`
Result: inactive

Request: What classification did `N#Cc1nc(-c2ccccc2)oc1N1CC[C@@H](CO)C1` end up with in this test?
Result: inactive

Request: Kindly provide the recorded test outcome for the following compound: `COc1ccc2[nH]cc(-c3cc(N)n4nc(-c5c[nH]c6ccc(OC)cc56)cc4n3)c2c1`
Result: active

Request: Hey, what did the test say about `CS(=O)(=O)c1ccc(-c2nc3ccccn3c2/C=N/Nc2nc(-c3ccc(Cl)cc3)cs2)cc1` ?
Result: inactive

Request: Which outcome was assigned to `O=C(CCN1C(=O)/C(=C/c2ccccc2F)SC1=S)N1CCOCC1` in this test?
Result: inactive

Request: Lab log entry: `Clc1ccc(-c2cn3cc(Cc4ccc(Cl)c(Cl)c4)sc3n2)cc1` — outcome as called in the assay?
Result: inactive

Request: Just curious, what result did `Cc1ccc(CNS(=O)(=O)/N=C2\NC(=O)NC2=C(Cl)Cl)cc1` get here?
Result: inactive

Request: Lab log entry: `O=C(CSc1nnc(-c2ccc3nc(-c4ccc(Cl)cc4)[nH]c3c2)o1)Nc1ccc(C(=O)/C=C/c2ccc(Cl)cc2)cc1` — outcome as called in the assay?
Result: inactive

Request: Query: recorded result category for `Cc1sc2c(c1C)c(=O)nc1c(-c3nc(-c4ccc(F)cc4)no3)n[nH]n12` in this test
Result: inactive

Request: Can you look up the reported call for CC(O)C(NC(=O)C1CCCN1C(=O)CNC(=O)C1CC(=O)NCC(=O)NC(Cc2c[nH]c3ccccc23)C(=O)NC(Cc2ccc(O)cc2)C(=O)NCC(=O)NC(CO)C(=O)NC(CCC(N)=O)C(=O)NC(Cc2c[nH]c3ccccc23)C(=O)N1)C(=O)NCC(=O)NC(CCC(N)=O)C(=O)NC(CCCNC(=N)N)C(=O)NC(CC(=O)O)C(=O)O (stereo not drawn) for me?
Result: inactive

Request: Hello, I am checking results. What call was entered for `O=C(N/N=C/c1ccc([N+](=O)[O-])s1)c1[nH]c2ccc(Br)cc2c1-c1ccccc1` ?
Result: inactive

Request: Recorded test call requested for `O=c1/c(=C\c2ccc(-c3ccccc3)o2)sc2nc(-c3ccccc3)nn12`
Result: inactive
